I'd be grateful if you could share measured Fold Reduction in binding affinity compared to WT (Kd) for these entries.
- Experimental system: T1, human CD7 (human, UniProt P09564 26-180, limits assumed)
- T1 construct: The construct is not described
- T1 sequence (looked up): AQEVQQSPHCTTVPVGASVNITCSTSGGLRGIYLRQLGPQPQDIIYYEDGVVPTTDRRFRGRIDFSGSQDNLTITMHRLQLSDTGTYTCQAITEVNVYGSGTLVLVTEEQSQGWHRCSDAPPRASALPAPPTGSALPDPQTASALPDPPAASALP
- Experimental details: SPR; reference 7-AA-WT
One number for each entry, in fold.

Recorded Fold Reduction in binding affinity compared to WT (Kd), per entry:
CD7-PP-3 CD7 binding arm (Fab, V domains shown, Heavy chain Arg57Lys) VH: QVQLQESGAELVKPGASVKLSCKASGYTFTSYWMHWVKQRPGQGLEWIGKINPSNGKTNYNEKFKSKATLTVDKSSSTAYMQLSSLTSEDSAVYYCARGGVYYDLYYYALDYWGQGTTVTVSS VL: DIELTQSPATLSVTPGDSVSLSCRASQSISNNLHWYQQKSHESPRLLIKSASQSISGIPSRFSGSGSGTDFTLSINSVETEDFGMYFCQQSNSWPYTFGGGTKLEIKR    12.4
CD7-PP-12 CD7 binding arm (Fab, V domains shown, Light chain Gln27Ala) VH: QVQLQESGAELVKPGASVKLSCKASGYTFTSYWMHWVKQRPGQGLEWIGKINPSNGRTNYNEKFKSKATLTVDKSSSTAYMQLSSLTSEDSAVYYCARGGVYYDLYYYALDYWGQGTTVTVSS VL: DIELTQSPATLSVTPGDSVSLSCRASASISNNLHWYQQKSHESPRLLIKSASQSISGIPSRFSGSGSGTDFTLSINSVETEDFGMYFCQQSNSWPYTFGGGTKLEIKR    2.08
7-PP-11 (Fab, V domains shown) VH: QVQLQESGAELVKPGASVKLSCKASGYTFTSYWMHWVKQRPGQGLEWIGKINPSNGRTNYNEKFKSKATLTVDKSSSTAYMQLSSLTSEDSAVYYCARGGVYYALYYAALDYWGQGTTVTVSS VL: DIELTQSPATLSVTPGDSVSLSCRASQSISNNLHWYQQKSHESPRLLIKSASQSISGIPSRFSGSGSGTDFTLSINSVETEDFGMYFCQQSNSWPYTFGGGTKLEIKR    93.7

*Q* // lookup Fold Reduction in binding affinity compared to WT (Kd) for CD7-PP-6 binding arm (Fab, V domains shown, Heavy chain Asp104Ala) VH: QVQLQESGAELVKPGASVKLSCKASGYTFTSYWMHWVKQRPGQGLEWIGKINPSNGRTNYNEKFKSKATLTVDKSSSTAYMQLSSLTSEDSAVYYCARGGVYYALYYYALDYWGQGTTVTVSS VL: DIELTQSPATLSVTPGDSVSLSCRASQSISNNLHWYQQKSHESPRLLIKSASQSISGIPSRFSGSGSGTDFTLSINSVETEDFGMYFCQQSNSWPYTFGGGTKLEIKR
*A* 17.2
